# Target of assay: Acetylcholinesterase (Homo sapiens, UniProt P22303)
# Sequence (P22303 whole entry): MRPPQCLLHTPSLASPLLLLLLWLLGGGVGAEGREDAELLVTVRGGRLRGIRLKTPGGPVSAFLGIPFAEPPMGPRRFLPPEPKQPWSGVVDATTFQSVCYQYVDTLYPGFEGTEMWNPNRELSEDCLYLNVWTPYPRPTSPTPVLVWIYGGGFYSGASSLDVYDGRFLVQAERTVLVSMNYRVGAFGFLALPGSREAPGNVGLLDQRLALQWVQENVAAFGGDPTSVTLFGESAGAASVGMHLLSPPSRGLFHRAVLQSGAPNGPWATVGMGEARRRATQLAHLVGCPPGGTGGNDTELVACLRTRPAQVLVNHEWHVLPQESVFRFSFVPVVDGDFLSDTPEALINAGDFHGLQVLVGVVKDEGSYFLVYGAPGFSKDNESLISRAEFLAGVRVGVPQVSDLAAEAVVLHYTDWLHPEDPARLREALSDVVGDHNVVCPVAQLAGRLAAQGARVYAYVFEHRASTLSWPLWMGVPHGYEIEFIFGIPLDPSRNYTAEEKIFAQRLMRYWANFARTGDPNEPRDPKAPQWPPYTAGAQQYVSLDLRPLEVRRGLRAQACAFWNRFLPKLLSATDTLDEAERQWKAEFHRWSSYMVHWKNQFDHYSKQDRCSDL
Measurement kind: pIC50
Note on units: pIC50 is unitless, being -log10 of a concentration expressed in mol/L.

O=C1/C(=C/c2ccc(Cl)cc2Cl)CN(C(=O)C[C@H]2C[C@H]3CCCN3[C@]23C(=O)Nc2ccccc23)C/C1=C\c1ccc(Cl)cc1Cl (racemic) :: 5.39
COc1ccccc1/C=C1\CN(C(=O)C[C@H]2C[C@H]3CCCN3[C@]23C(=O)Nc2ccccc23)C/C(=C\c2ccccc2OC)C1=O (racemic) :: 4.80
O=C(C[C@H]1C[C@H]2CCCN2[C@]12C(=O)Nc1ccccc12)N1C/C(=C\c2ccc(F)cc2)C(=O)[C@]2(C[C@H]3CCCN3[C@@]23C(=O)Nc2ccccc23)C1 (racemic) :: 4.63
C=CC(=O)N1C/C(=C\c2ccc(Cl)cc2Cl)C(=O)/C(=C/c2ccc(Cl)cc2Cl)C1 :: 4.80
C=CC(=O)N1C/C(=C\c2ccccc2C)C(=O)/C(=C/c2ccccc2C)C1 :: 4.76

For the next question, use this molecule.
Prompt: Name the reported pIC50 value associated with the molecule O=C1/C(=C/c2cccc([N+](=O)[O-])c2)CN(C(=O)C[C@H]2C[C@H]3CCCN3[C@]23C(=O)Nc2ccccc23)C/C1=C\c1cccc([N+](=O)[O-])c1 (racemic)
Response: 5.22

###

# Target of assay: UniProtKB P22303
# Assay notes: Inhibition of AChE (unknown origin) using acetylthiocholine iodide substrate by Ellman's method based spectrophotometry
# IC50 listing for each entry below

Prompt: Name the reported IC50 value associated with the compound Cc1ccccc1/C=C1\CN(C(=O)C[C@H]2C[C@H]3CCCN3[C@]23C(=O)Nc2ccccc23)C[C@@]2(C[C@H]3CCCN3[C@@]23C(=O)Nc2ccccc23)C1=O (racemic)
Response: 27.5 µM

Prompt: Name the reported IC50 value associated with the compound C=CC(=O)N1C/C(=C\c2ccc(C)cc2)C(=O)/C(=C/c2ccc(C)cc2)C1
Response: 18.1 µM

Prompt: Name the reported IC50 value associated with the compound Cc1ccc(/C=C2\CN(C(=O)C[C@H]3C[C@H]4CCCN4[C@]34C(=O)Nc3ccccc34)C/C(=C\c3ccc(C)cc3)C2=O)cc1 (racemic)
Response: 20.1 µM
